Each recorded value in this set is attributed to patent US11078213B2.

- Target system: EML4-ALK-BaF3 (Homo sapiens, UniProt Q9UM73)
- Construct: EML4 (echinoderm microtubule associated protein like 4, Q9HC35) fusion partner; expressed in transfected cells; host or cells: BaF3; the other entry of the earlier key: EML4 (Q9HC35, Echinoderm microtubule-associated protein-like 4)
- Sequence (Q9UM73 1058-1620 limits assumed): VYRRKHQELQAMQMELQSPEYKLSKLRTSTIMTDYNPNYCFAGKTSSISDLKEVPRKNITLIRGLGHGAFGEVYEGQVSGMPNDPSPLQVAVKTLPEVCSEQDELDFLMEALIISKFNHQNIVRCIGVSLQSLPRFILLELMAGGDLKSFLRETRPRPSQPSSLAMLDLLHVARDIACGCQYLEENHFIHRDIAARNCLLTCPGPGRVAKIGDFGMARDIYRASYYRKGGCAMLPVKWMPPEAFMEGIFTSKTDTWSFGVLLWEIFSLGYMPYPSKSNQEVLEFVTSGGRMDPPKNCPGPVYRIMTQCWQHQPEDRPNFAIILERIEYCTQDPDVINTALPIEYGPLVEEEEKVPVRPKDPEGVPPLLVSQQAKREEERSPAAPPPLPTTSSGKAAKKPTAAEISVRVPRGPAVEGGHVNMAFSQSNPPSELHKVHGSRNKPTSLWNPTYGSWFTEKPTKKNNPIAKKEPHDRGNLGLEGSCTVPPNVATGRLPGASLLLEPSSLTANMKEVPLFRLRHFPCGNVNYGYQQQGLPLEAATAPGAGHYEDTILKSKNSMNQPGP
- Experiment description: Growth inhibition of BaF3 cells stably transfected with kinase EML4-ALK (MTS)
- Assay type: cell-based
- Condition label: compound concentration 3.3 μM, read-out: cell growth inhibition rate, EML4-ALK
Measure name: inhibition at 3.3 µM (%)
Value expressed in %; do not type the unit.

Use these answered entries as a reference point.
COC(=O)c1ccccc1Nc1nc(Nc2ccc(N3CCC(N4CCCC4)CC3)cc2OC)nc2ccsc12    99
COC(=O)c1ccccc1Sc1nc(Nc2ccc(N3CCC(N4CCCC4)CC3)cc2OC)nc2ccsc12    98.4
COc1cc(N2CCC(N(C)C)CC2)ccc1Nc1nc(OCc2ccccc2S(=O)(=O)C(C)C)c2sccc2n1    101
COc1cc(N2CCC(N3CCN(C)CC3)CC2)ccc1Nc1nc(Nc2ccccc2P(C)(C)=O)c2sccc2n1    100
COC(=O)c1ccccc1Nc1nc(Nc2ccc(N3CCC(N4CCN(C)CC4)CC3)cc2OC)nc2ccsc12    97
CCOc1cc(N2CCN(C)CC2)ccc1Nc1nc(Nc2ccccc2C(=O)OC)c2sccc2n1    98.5

# inhibition at 3.3 µM lookup, item COc1cc(C2CCN(C)CC2)c(C)cc1Nc1nc(Nc2ccccc2P(C)(C)=O)c2sccc2n1 99.6

# inhibition at 3.3 µM lookup, item COC(=O)c1ccccc1Sc1nc(Nc2cc3c(cc2OC)CCN3C(=O)CN(C)C)nc2ccsc12 100

# inhibition at 3.3 µM lookup, item COc1cc(N2CCC(N(C)C)CC2)ccc1Nc1nc(Nc2ccccc2P(C)(C)=O)c2sccc2n1 99.3

# inhibition at 3.3 µM lookup, item COC(=O)c1ccccc1Sc1nc(Nc2ccc(N3CCC(O)CC3)cc2)nc2ccsc12 98.3

# inhibition at 3.3 µM lookup, item COc1cc(N2CCC(N(C)C)CC2)ccc1Nc1nc(Nc2ccccc2S(=O)(=O)C(C)(C)C)c2sccc2n1 97

# inhibition at 3.3 µM lookup, item COc1cc(N2CCC(N3CCN(C)CC3)CC2)ccc1Nc1nc(Nc2ccccc2S(=O)(=O)C(C)C)c2sccc2n1 82.9

# inhibition at 3.3 µM lookup, item COc1cc(N2CCC(N(C)C)CC2)ccc1Nc1nc(Nc2ccccc2P(=O)(C(C)C)C(C)C)c2sccc2n1 98.3
